Each recorded value in this set is attributed to the supplement of paper PMC9112550.

# Tested on: Escherichia coli TOP10
# assay overview: shrunken log2 fold change of peptide-encoding DNA abundance (4.5 h post-induction vs induction); higher = less antimicrobial activity (less host growth inhibition)
# study conditions: time post-induction: 4.5 h; library: site-saturation at positions 5, 18, 19, 20
Response key: fulfilled means shrunken log2 fold change >= -0.02; not fulfilled means shrunken log2 fold change < -0.02.

Does shrunken log2 fold change meet or surpass -0.02 for RRIRHRPPRLPRPRPRPSNCPRP ?
not fulfilled

Is the recorded value of shrunken log2 fold change equal to or greater than -0.02 for this sequence? RRIRWRPPRLPRPRPRPRMAPRP
fulfilled

Is shrunken log2 fold change for RRIRLRPPRLPRPRPRPITQPRP at or above -0.02?
not fulfilled

Textbook exercise: given the entry RRIRFRPPRLPRPRPRPTAPPRP , state whether its shrunken log2 fold change is greater than or equal to -0.02.
fulfilled

Textbook exercise: given the entry RRIRWRPPRLPRPRPRPYCFPRP , state whether its shrunken log2 fold change is greater than or equal to -0.02.
not fulfilled

Check if shrunken log2 fold change >= -0.02 (inclusive). Item: RRIRERPPRLPRPRPRPEKAPRP
not fulfilled

====

# System: Escherichia coli TOP10;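 note: peptides expressed intracellularly from a pBAD plasmid library in pooled LB shake-flask culture, induced with 0.3% L-arabinose, DNA abundance read by NGS, three biological replicates, DESeq2 with apeglm shrinkage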
# assay overview: shrunken log2 fold change of peptide-encoding DNA abundance (4.5 h post-induction vs induction); higher = less antimicrobial activity (less host growth inhibition)
# study conditions: time post-induction: 4.5 h; library: site-saturation at positions 5, 18, 19, 20
Output Condition met for shrunken log2 fold change not less than -0.3; output Condition not met otherwise.

Textbook exercise: given the entry RRIRDRPPRLPRPRPRPQHWPRP , state whether its shrunken log2 fold change is greater than or equal to -0.3.
Condition met

Form field: shrunken log2 fold change at least -0.3? Entry: RRIRWRPPRLPRPRPRPLIEPRP
Condition met

hey, is shrunken log2 fold change for this one >= -0.3? RRIRHRPPRLPRPRPRPSFCPRP
Condition not met

Would you say RRIRYRPPRLPRPRPRPLIYPRP shows shrunken log2 fold change at minimum -0.3?
Condition not met

Determine whether measured shrunken log2 fold change meets or exceeds -0.3 for RRIRTRPPRLPRPRPRPQARPRP
Condition met

I'd appreciate it if you could say whether RRIRHRPPRLPRPRPRPVMYPRP has shrunken log2 fold change at least equal to -0.3.
Condition not met

Could you verify whether the entry RRIRCRPPRLPRPRPRPGKSPRP shows shrunken log2 fold change of no less than -0.3?
Condition met

Is reported shrunken log2 fold change greater than or equal to -0.3 here: RRIRCRPPRLPRPRPRPQTVPRP
Condition met

Threshold query (shrunken log2 fold change >= -0.3) on RRIRARPPRLPRPRPRPVSIPRP
Condition met

Is shrunken log2 fold change at least -0.3? Consider RRIRLRPPRLPRPRPRPHAIPRP
Condition not met

Entry RRIRHRPPRLPRPRPRPFYFPRP : is its shrunken log2 fold change no less than -0.3?
Condition not met

Threshold query (shrunken log2 fold change >= -0.3) on RRIRRRPPRLPRPRPRPYDKPRP
Condition met

Decide: shrunken log2 fold change of RRIRERPPRLPRPRPRPYHRPRP >= -0.3?
Condition met

Hi, just wondering whether RRIRSRPPRLPRPRPRPVQYPRP shows shrunken log2 fold change of -0.3 or higher.
Condition met
